target: Alpha-glucosidase (Saccharomyces cerevisiae S288c, UniProt P53341+P38158+P07265); experiment: Inhibition of Saccharomyces cerevisiae alpha-glucosidase using pNPG as substrate preincubated for 10 mins followed by substrate addition and measured after 20 mins by spectrophotometric analysis; assay type: protein assay
IC50 for assorted molecules
quantity.name: IC50 (µM)

molecule	readout.unit	measured.result
O=C1Cc2ccccc2C(O)C1C(c1ccc(OCc2cn(Cc3ccccc3Cl)nn2)cc1)c1c(O)c2ccccc2oc1=O (centres undefined)	µM	13
O=C(COc1ccc(-c2nc(-c3ccccc3)c(-c3ccccc3)[nH]2)cc1)Nc1cccc(Br)c1	µM	90
COc1ccc(C2=NOC(c3ccccc3)N2c2ccc(OC)cc2)cc1 (centres undefined)	µM	295
O=C(CSC(=S)Nc1cccc([N+](=O)[O-])c1)c1cc2ccccc2oc1=O	µM	85
O=C(N/N=C/c1cn(-c2ccccc2)nc1-c1ccc([N+](=O)[O-])cc1)c1cc2ccccc2o1	µM	40.6
Fc1ccc(C2=NOC(c3ccccc3)N2c2ccc(F)cc2)cc1 (centres undefined)	µM	256
Cc1ccc(C(c2c(N)c3ccccc3oc2=O)c2c(N)c3ccccc3oc2=O)cc1	µM	20
Cc1ccccc1Cn1cc(COc2ccc(C(c3c(O)c4ccccc4oc3=O)C3C(=O)Cc4ccccc4C3O)cc2)nn1 (centres undefined)	µM	16.4
Clc1ccc(C2=NOC(c3ccccc3)N2c2ccc(Cl)cc2)cc1 (centres undefined)	µM	215
